- Test system: primary human T-cells
- Method: Cytotoxicity to T-cells in vitro
- Assay type: cell-based
- Condition description: primary human T-cells; read-out: T-cell cytotoxicity IC50
Would you mind telling me the reported IC50 of each entry?

Prompt: Report IC50 for CC1(C)CCC(CN2CCN(c3ccc(C(=O)NS(=O)(=O)c4ccc(NCC5CCOCC5)c([N+](=O)[O-])c4)c(Oc4cnc5[nH]ccc5c4)c3)CC2)=C(c2ccc(Cl)cc2)C1 please.
Response: ~1000 nM

Prompt: IC50 lookup needed for CC1(C)CCC(c2ccc(Cl)cc2)=C(CN2CCN(c3ccc(C(=O)NS(=O)(=O)c4ccc(N[C@H](CCN5CCOCC5)CSc5ccccc5)c(S(=O)(=O)C(F)(F)F)c4)cc3)CC2)C1 , thanks.
Response: ~1000 nM

Prompt: Quick check: IC50 of CN(C)CC[C@H](CSc1ccccc1)Nc1ccc(S(=O)(=O)NC(=O)c2ccc(N3CCN(Cc4ccccc4-c4ccc(Cl)cc4)CC3)cc2)cc1[N+](=O)[O-] [ABT-737, reference compound] ?
Response: ~1000 nM
